System: PPARg DBDmut IVT, anti-PPARg (DBD mutation: PPARg1 K132A/R137A, NR concentration 270 nM)
assay_comment: PBM binding z-score (relative to random genomic background probes); higher = stronger binding; sequences stand for … in GC…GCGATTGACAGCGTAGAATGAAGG
Each item that follows carries a reported PBM binding z-score.
Lab note: write the figure by itself, no unit.

As a guide, the following entries are already answered.
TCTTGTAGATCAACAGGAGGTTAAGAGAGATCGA
-0.105
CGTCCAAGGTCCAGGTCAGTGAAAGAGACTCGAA
-0.937
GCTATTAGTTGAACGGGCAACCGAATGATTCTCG
-0.0789
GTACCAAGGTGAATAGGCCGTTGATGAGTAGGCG
-0.431
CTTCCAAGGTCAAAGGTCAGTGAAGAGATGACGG
2.25

Proceeding to the next sequence to report its PBM binding z-score.
I have this sequence here, `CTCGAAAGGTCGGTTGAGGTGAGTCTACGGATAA` , and I need its recorded PBM binding z-score. -0.386

---

System: PPARa:RXRa (NR concentration 270 nM, RXRa partner concentration 90 nM)
assay_comment: PBM binding z-score (relative to random genomic background probes); higher = stronger binding; sequences stand for … in GC…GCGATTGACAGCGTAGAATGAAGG
Classification scheme (PBM binding z-score): lo: < 2; mid: ≥ 2 and < 4; hi: ≥ 4

Examples from the recorded data:
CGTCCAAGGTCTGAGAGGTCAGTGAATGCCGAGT
mid
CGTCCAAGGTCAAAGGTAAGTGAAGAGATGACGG
hi
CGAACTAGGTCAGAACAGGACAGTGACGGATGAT
mid
CGAACTTGGTCAGAACAGGACAGTGAAGGATGAT
lo
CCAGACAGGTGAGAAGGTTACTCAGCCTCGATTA
lo
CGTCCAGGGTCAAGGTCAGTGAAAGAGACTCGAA
hi

Bin this entry: `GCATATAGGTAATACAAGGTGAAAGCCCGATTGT` lo

Please let me know in which category the item `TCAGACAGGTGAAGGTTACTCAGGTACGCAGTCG` belongs. lo

Class label required: `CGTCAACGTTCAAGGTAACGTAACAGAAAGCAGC` lo

In plain terms, what class is `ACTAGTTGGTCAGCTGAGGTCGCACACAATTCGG` ? lo

---

Tested on: RARb:RXRa (NR concentration 270 nM, RXRa partner concentration 90 nM)
assay_comment: PBM binding z-score (relative to random genomic background probes); higher = stronger binding; sequences stand for … in GC…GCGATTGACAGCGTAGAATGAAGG
// label = t if PBM binding z-score is not less than 0.4, otherwise f

A selection of reference data follows.
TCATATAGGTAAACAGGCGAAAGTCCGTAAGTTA
f
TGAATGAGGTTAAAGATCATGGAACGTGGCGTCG
t
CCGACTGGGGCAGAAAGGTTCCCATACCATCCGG
f
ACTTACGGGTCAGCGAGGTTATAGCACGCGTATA
t

Quick check: does `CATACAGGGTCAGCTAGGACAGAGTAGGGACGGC` have PBM binding z-score greater than or equal to 0.4? t

Evaluate `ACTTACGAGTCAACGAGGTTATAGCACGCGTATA` : PBM binding z-score at minimum 0.4? t

---

System: PPARg:RXRa (NR concentration 180 nM, RXRa partner concentration 90 nM)
assay_comment: PBM binding z-score (relative to random genomic background probes); higher = stronger binding; sequences stand for … in GC…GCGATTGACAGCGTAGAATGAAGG
readout_label: PBM binding z-score
Lab note: record the figure alone, no unit after it.

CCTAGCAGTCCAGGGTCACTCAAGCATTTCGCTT
0.115
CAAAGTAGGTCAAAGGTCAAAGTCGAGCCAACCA
14.1
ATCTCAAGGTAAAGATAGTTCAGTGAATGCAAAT
0.372

Report PBM binding z-score for `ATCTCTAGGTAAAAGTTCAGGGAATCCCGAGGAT` please. 8.19

I am curious: what PBM binding z-score value has been reported for `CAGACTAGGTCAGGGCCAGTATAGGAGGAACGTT` ? 3.84

Fill blank: measured PBM binding z-score of the sequence `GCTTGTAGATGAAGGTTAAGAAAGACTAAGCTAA` is ____. 0.15

Request the reported PBM binding z-score associated with `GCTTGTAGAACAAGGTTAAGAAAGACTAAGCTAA` 0.852

Data request, read-out PBM binding z-score, for `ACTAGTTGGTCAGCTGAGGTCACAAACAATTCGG` 1.41

Suppose we examine the sequence `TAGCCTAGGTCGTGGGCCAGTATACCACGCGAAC` ; what PBM binding z-score value has been reported? 0.333

---

Test system: VDR homodimer (NR concentration 270 nM)
assay_comment: PBM binding z-score (relative to random genomic background probes); higher = stronger binding; sequences stand for … in GC…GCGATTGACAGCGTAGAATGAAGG
Reported PBM binding z-score maps to class as: zone 1 (below 0.2), zone 2 (0.2 to below 2), zone 3 (2 or more)

Please review the entries below; each comes with its answer.
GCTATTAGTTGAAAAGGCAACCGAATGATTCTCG
zone 1
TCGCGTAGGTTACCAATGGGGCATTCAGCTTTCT
zone 1
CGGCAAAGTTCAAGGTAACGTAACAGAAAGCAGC
zone 3
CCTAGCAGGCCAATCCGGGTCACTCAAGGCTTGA
zone 2

Field: class (PBM binding z-score) — entry: `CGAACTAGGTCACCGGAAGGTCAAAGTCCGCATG` zone 3

Which class is correct for the following sequence? `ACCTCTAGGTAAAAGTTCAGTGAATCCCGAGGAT` zone 2

---

Test system: PPARg homodimer (NR concentration 180 nM)
assay_comment: PBM binding z-score (relative to random genomic background probes); higher = stronger binding; sequences stand for … in GC…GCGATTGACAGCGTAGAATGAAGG
Each record here notes measured PBM binding z-score.

Solved entries:
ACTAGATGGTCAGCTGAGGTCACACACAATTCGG
2.89
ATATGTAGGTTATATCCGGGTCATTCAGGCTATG
3.38
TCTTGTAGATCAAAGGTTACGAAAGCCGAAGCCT
1.11
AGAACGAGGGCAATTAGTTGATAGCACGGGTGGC
0.218
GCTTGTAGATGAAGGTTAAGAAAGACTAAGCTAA
-0.126

Could you tell me which PBM binding z-score is on file for `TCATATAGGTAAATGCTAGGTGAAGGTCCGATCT` ? 0.952

Fill in: PBM binding z-score of `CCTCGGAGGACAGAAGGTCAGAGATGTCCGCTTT` is ___ 1.03

Request the reported PBM binding z-score associated with `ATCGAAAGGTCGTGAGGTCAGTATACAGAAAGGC` 3.48

Bench note: what PBM binding z-score did `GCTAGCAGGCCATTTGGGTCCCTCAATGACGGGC` show? -1.41

# query: PBM binding z-score of entry `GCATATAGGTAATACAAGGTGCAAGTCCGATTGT` 0.579

Can you share its PBM binding z-score? I mean this sequence: `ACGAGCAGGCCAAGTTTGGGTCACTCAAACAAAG` 0.235

Item `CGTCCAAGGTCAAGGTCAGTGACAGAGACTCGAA` has what recorded PBM binding z-score? 4.7

Which PBM binding z-score value belongs to `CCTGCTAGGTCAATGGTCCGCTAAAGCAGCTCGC` ? 0.967

Data request, read-out PBM binding z-score, for `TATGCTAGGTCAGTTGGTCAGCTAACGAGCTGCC` 0.0439

Given the sequence `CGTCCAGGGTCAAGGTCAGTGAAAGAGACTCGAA` , what is its reported PBM binding z-score? 3.01

Can you look up the measured PBM binding z-score of `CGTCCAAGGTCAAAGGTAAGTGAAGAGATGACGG` for me? 2.19

What value of measured PBM binding z-score is listed for `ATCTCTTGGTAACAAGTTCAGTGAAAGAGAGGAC` ? 0.303

Record request: PBM binding z-score value, item `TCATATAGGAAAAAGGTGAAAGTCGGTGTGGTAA` 1.49

# query: PBM binding z-score of entry `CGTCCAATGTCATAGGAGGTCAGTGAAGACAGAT` 1.72

---

Tested on: RARa:RXR (NR concentration 270 nM, RXRa partner concentration 90 nM)
assay_comment: PBM binding z-score (relative to random genomic background probes); higher = stronger binding; sequences stand for … in GC…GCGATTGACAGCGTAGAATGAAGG
# PBM binding z-score values compiled below
Enter the number alone.

Some sequences with recorded PBM binding z-score:
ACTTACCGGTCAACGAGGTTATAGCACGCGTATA
2.38
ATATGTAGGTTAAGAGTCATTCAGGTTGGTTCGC
1.5
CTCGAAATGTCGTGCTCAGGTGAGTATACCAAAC
0.0583
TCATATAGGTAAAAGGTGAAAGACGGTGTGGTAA
3.13
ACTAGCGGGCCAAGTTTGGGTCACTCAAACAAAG
1.51
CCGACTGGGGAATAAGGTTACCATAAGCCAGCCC
1.11

Now look at this entry.
Lab note: need PBM binding z-score with RARa:RXR (NR concentration 270 nM, RXRa partner concentration 90 nM) for entry `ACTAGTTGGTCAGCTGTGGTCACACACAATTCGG` , please look it up. 0.442
